# Method: Photometric activity determination of 7β-HSDH and mutants (decrease in absorbance at 340 nm, DHCA reduction with NADPH)
# Assay type: biochemical
# Condition Context: Table 4, variants modified at position 64; 10 mM DHCA, NADPH, KPi pH 8.0
Assay Readout: Specific activity (U/mg)
Form entry: value (U/mg) — number only.

In: Give the reported value of Specific activity for this record: 7β-HSDH [R64L]: 7β-HSDH mutant, R in position 64 replaced by L (protein, UniProt A4ECA9 1-263, looked up, variant R64L) 7beta-hydroxysteroid …: MNLREKYGEWGLILGATEGVGKAFCEKIAAGGMNVVMVGRREEKLNVLAGEIRETYGVETKVVLADFSQPGAAETVFAATEGLDMGFMSYVACLHSFGKIQDTPWEKHEAMINVNVVTFLKCFHHYMRIFAAQDRGAVINVSSMTGISSSPWNGQYGAGKAFILKMTEAVACECEGTGVDVEVITLGTTLTPSLLSNLPGGPQGEAVMKIALTPEECVDEAFEKLGKELSVIAGQRNKDSVHDWKANHTEDEYIRYMGSFYRD
Out: 20.9

In: Give the reported value of Specific activity for this record: 7β-HSDH [R64V]: 7β-HSDH mutant, R in position 64 replaced by V (protein, UniProt A4ECA9 1-263, looked up, variant R64V) 7beta-hydroxysteroid …: MNLREKYGEWGLILGATEGVGKAFCEKIAAGGMNVVMVGRREEKLNVLAGEIRETYGVETKVVVADFSQPGAAETVFAATEGLDMGFMSYVACLHSFGKIQDTPWEKHEAMINVNVVTFLKCFHHYMRIFAAQDRGAVINVSSMTGISSSPWNGQYGAGKAFILKMTEAVACECEGTGVDVEVITLGTTLTPSLLSNLPGGPQGEAVMKIALTPEECVDEAFEKLGKELSVIAGQRNKDSVHDWKANHTEDEYIRYMGSFYRD
Out: 15.1
